# study.system: ROCKII (Mus musculus)
# Construct: made in house; host or cells: COS cells (transient transfection, immunoprecipitated with 9E10 anti-myc antibody on protein G-Sepharose)
# Sequence (P70336 whole entry): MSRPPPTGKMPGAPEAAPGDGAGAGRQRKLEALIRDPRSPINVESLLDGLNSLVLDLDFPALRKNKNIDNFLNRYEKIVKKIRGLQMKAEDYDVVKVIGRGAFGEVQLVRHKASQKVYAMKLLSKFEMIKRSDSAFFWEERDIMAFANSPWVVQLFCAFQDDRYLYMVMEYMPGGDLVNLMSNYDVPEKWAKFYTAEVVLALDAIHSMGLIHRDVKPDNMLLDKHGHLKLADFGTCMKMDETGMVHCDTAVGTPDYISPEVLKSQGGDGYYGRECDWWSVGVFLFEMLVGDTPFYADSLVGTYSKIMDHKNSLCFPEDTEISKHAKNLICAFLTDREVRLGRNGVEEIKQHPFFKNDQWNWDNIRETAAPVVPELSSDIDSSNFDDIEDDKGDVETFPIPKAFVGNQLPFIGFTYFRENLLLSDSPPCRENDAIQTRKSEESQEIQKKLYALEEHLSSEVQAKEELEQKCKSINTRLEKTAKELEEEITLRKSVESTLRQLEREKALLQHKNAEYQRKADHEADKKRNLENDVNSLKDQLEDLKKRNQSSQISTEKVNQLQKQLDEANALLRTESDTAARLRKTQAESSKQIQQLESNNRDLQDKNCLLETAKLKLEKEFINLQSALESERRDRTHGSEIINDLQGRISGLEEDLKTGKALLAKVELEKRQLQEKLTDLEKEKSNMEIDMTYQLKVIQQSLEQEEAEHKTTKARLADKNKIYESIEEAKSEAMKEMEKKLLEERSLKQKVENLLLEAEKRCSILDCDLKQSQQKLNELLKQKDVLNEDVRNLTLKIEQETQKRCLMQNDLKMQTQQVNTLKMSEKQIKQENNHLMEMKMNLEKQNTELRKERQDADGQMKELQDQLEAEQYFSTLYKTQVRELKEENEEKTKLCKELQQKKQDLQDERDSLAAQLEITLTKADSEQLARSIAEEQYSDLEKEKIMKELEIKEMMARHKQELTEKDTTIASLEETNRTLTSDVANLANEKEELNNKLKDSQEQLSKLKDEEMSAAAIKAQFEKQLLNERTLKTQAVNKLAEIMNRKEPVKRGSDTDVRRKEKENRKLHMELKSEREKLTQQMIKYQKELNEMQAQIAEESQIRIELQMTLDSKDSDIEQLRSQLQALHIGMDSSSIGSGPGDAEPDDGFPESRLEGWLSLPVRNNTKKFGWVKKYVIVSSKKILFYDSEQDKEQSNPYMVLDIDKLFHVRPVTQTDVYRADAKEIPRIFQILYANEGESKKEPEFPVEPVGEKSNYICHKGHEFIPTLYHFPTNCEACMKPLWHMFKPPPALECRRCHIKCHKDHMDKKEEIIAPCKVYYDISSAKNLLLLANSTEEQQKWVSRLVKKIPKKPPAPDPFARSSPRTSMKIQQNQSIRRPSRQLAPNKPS
# experiment: Inhibition of ROCKII (myc-tagged, expressed in COS cells)
# Assay type: biochemical
# run.conditions: enzyme expressed in COS cells; read-out: IC50 (μM) ROCK-II
readout.name: IC50 (µM)
Give bare numbers, in µM.

compound: CC(N)[C@H]1CC[C@H](C(=O)Nc2ccnc3[nH]ccc23)CC1 (single isomer, unassigned; (+)) [Compound 109.2HCl]
endpoint.result: 0.048

Q: What IC50 value was documented for this compound, N=C(N)NC[C@H]1CC[C@H](C(=O)Nc2ccnc3[nH]ncc23)CC1 [Compound 143.2HCl.H2O] ?
Result: 0.47

---

Hi there, I'd appreciate the recorded IC50 for every entry that follows.
# Tested on: BALB/c spleen cells stimulated with C57BL/6 spleen cells
# experiment: Inhibition of mouse allogenic mixed lymphocyte reaction
# Type: cell-based
# run.conditions: Mus musculus, Lymphocyte, 96 h; 4 days culture, MTT; read-out: Mouse allogenic MLR inhibitory activity IC50
Be sure to follow the number with its unit.

Record IC50 per entry; entries follow.
1. CC(N)[C@H]1CC[C@H](C(=O)Nc2ccncc2)CC1 (single isomer, unassigned; (+)) [Compound 80.2HCl.H2O]
2. CC(N)[C@H]1CC[C@H](C(=O)Nc2ccnc3[nH]ccc23)CC1 (single isomer, unassigned; (+)) [Compound 109.2HCl]
3. CC1CNCCN1S(=O)(=O)c1cccc2cnccc12 (stereo not shown) [Compound 308.2HCl]
4. CC(N)[C@H]1CC[C@H](C(=O)Nc2ccnc3[nH]ncc23)CC1 (single isomer, unassigned; (+)) [Compound 112.2HCl]

Result:
9.6 µM
1.6 µM
13.9 µM
4.4 µM

---

Hi there, I'd appreciate the recorded inhibition at 100 µM for every entry that follows.
# Tested on: mouse femoral bone
# experiment: Inhibition of bone resorption (in vitro), mouse femoral bone
# run.conditions: 144 h, 6 days incubation of ICR mouse femoral bone
Give bare numbers, in %.

compound: N=C(N)NC[C@H]1CC[C@H](C(=O)Nc2ccnc3[nH]ncc23)CC1 [Compound 143.2HCl.H2O]
inhibition at 100 µM / %: 39.4
//
compound: CC(N)[C@H]1CC[C@H](C(=O)Nc2ccncc2)CC1 (single isomer, unassigned; (+)) [Compound 80.2HCl.H2O]
inhibition at 100 µM / %: 40.9
//
compound: CC(N)[C@H]1CC[C@H](C(=O)Nc2ccnc3[nH]ccc23)CC1 (single isomer, unassigned; (+)) [Compound 109.2HCl]
inhibition at 100 µM / %: 42.6
//
compound: CC(N)[C@H]1CC[C@H](C(=O)Nc2ccnc3[nH]ncc23)CC1 (single isomer, unassigned; (+)) [Compound 112.2HCl]
inhibition at 100 µM / %: 75.7

Q: What inhibition at 100 µM value was documented for this compound, N=C(N)NC[C@H]1CC[C@H](C(=O)Nc2ccnc3[nH]ccc23)CC1 [Compound 142.2HCl.H2O] ?
Result: 44.2

---

Hi there, I'd appreciate the recorded IC50 for every entry that follows.
# Tested on: smooth muscle cell (SMC) from rat aorta
# experiment: Inhibition of growth of vascular smooth muscle cell
# Format: cell-based
# run.conditions: 48 hours, MTT
Counter-ions that a name gives are not always drawn.
Be sure to follow the number with its unit.

Solved entries:
molecule: C[C@@H](N)c1ccc(C(=O)Nc2ccnc3[nH]ccc23)cc1 [Compound 165.2HCl.3/2H2O]
endpoint.result: 38 µM
//
molecule: C[C@@H](N)c1ccc(C(=O)Nc2ccncc2)cc1Cl
endpoint.result: 63 µM
//
molecule: C[C@@H](N)c1ccc(C(=O)Nc2ccncc2)cc1 [Compound 157.HCl.H2O]
endpoint.result: 55 µM

From here, focus on the item given below.
Q: What IC50 value was documented for this molecule, CCCCCCCCNC(=N)NC[C@H]1CC[C@H](C(=O)Nc2ccnc3[nH]ccc23)CC1 [compound 153.2HCl] ?
Result: 27 µM

---

Hi there, I'd appreciate the recorded melting point for every entry that follows.
Where a name gives a salt, the structure may show the parent alone.

Solved entries:
molecule: O=C(Nc1ccnc2[nH]ncc12)C1CCN(CCCc2ccccc2)CC1 (as salt: hydrochloride) (hydrate or solvate)
endpoint.result: 240 to 244 °C (dec.)
//
molecule: O=C(Nc1ccnc2c1CCN2)C1CCNCC1 (as salt: hydrochloride) (hydrate or solvate)
endpoint.result: 235 °C (dec.)
//
molecule: N=C(N)N1CCC(C(=O)Nc2ccnc3[nH]ccc23)CC1 (as salt: hydrochloride) (hydrate or solvate)
endpoint.result: 246 °C (dec.)
//
molecule: O=C(Nc1ccnc2[nH]ncc12)C1CCNCC1 (as salt: hydrochloride) (hydrate or solvate)
endpoint.result: 277 °C (dec.)
//
molecule: O=C(Nc1ccnc2[nH]ccc12)C1CCN(CCc2ccccc2)CC1 (as salt: hydrochloride) (hydrate or solvate)
endpoint.result: 272 °C (dec.)
//
molecule: O=C(Nc1ccnc2[nH]ccc12)C1CCN(CCCc2ccccc2)CC1 (as salt: hydrochloride)
endpoint.result: 276 °C (dec.)
//
molecule: COCn1ncc2c(NC(=O)C3CCNCC3)ccnc21 (hydrate or solvate)
endpoint.result: 240 to 241 °C
//
molecule: O=C(Nc1ccnc2[nH]ncc12)C1CCN(CCc2ccccc2)CC1 (as salt: hydrochloride) (hydrate or solvate)
endpoint.result: 259 to 261 °C (dec.)
//
molecule: O=C(Nc1ccnc2[nH]ccc12)C1CCNCC1 (as salt: hydrochloride) (hydrate or solvate)
endpoint.result: 273 °C (dec.)

Q: What melting point value was documented for this molecule, O=C(Nc1ccnc2[nH]ccc12)C1CCN(Cc2ccccc2)CC1 (as salt: hydrochloride) (hydrate or solvate) ?
Result: 260 °C (dec.)
